# System: TAG
# procedure summary: TAG lipid buildup inhibition with viability readout – cell-based, panel, Nile Red and DAPI fluorescence, H9c2, dose response (AID 651630);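 also: cells exposed to compound overnight before fixation and staining; hits lower the Nile Red lipid signal and are scored as TAG inhibitors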
# applied conditions: H9c2 cells, Nile Red TAG fluorescence, oleic acid, mean of runs
Calls of active or inactive are those of the source.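 The calls were made as follows: active = lipid-stain IC50 at or below a set limit, with nuclear-stain toxicity IC50 at least five times higher; inactive = the rest.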
Return exactly one item of label 1 = active, label 0 = inactive

Problem: Outcome? CC(C)(C)OC(=O)N(CCc1ccccc1)Cc1ccc(OCc2cccc(NC(=O)/C=C/c3ccccc3)c2)cc1
Result: label 1

Problem: Query: recorded result category for CCOC(=O)c1sc2nc(CSc3ccccc3)nc(NCCN(C)C)c2c1C in this test
Result: label 1

Problem: Entry CC1(C(=O)NCc2ccco2)Cc2c(-c3cccc(C(F)(F)F)c3)ccnc2O1 (stereo unspecified) : call = ?
Result: label 0

Problem: Recorded call for O=C(Nc1ccc(-c2csc(Nc3ccc(Cl)cc3)n2)cc1)c1cc([N+](=O)[O-])cc(C(F)(F)F)c1 ?
Result: label 1

Problem: For O=C1N=C(N2CCOCC2)S/C1=C/c1ccc(-c2ccc(F)cc2)o1 , what call appears in the results of this test?
Result: label 0

Problem: I'd appreciate the recorded outcome for Cc1nn2c(N3CCN(C)CC3)c3c(nc2c1-c1ccccc1)CCCC3 from this test.
Result: label 0

Problem: // return assay outcome for CCCCCCC(C)(C)c1ccc([C@@H]2C[C@H](O)CC[C@H]2CCCO)c(O)c1
Result: label 1

Problem: Which outcome was entered for the compound COc1cc(C(CCN2CCCC(C)C2)c2c(OC)cc(OC)c3c(-c4ccccc4)cc(=O)oc23)cc(OC)c1OC (stereo unspecified) in this test?
Result: label 1

Problem: Short answer needed: outcome of this test for Brc1ccc(C2=Nn3c(nnc3-c3n[nH]c4c3CCC4)SC2)cc1 ?
Result: label 1

Problem: // outcome(item) with item = COC(=O)/C=C/c1ccccc1S(=O)(=O)N(Cc1ccccc1)Cc1ccco1
Result: label 0

Problem: Short answer needed: outcome of this test for CCOCCOC(=O)c1[nH]c2c(c1C)C(=O)CC(c1cccs1)C2 (stereo unspecified) ?
Result: label 0

Problem: What was the test verdict on CN1CCN(c2ccc([N+](=O)[O-])cc2C(=O)c2ccc(Cl)cc2)CC1 ?
Result: label 0

Problem: For Cc1noc(C)c1COc1cccc(C(=O)OCC(=O)N2CC(=O)Nc3ccccc32)c1 , which call appears in the assay record?
Result: label 0

Problem: For CCN1CCN(Cc2ccc(NC(=O)c3cc(NC(=O)c4cc5cccc(OC)c5o4)cc(OC)c3)cc2C(F)(F)F)CC1 , what call appears in the results of this test?
Result: label 1

Problem: What outcome does the record of this test show for CC1(C(=O)Nc2cccc(Oc3ccccc3)c2)Cc2c(-c3ccc4c(c3)OCO4)ccnc2O1 (stereo unspecified) ?
Result: label 0

Problem: # outcome recorded in this test, key = N/C(=N\c1nc2ccccc2o1)NC(=O)c1ccc(F)cc1
Result: label 0

Problem: What is the recorded call for this compound in the test? COc1ccc(-c2nc(-c3ccccc3)c(-c3cc([N+](=O)[O-])ccc3C)[nH]2)cc1OC
Result: label 1

Problem: Hey, what did the test say about COc1cc(OC)cc(C(=O)N2CC(=O)Nc3ccccc32)c1 ?
Result: label 0

Problem: Dear all, I need the recorded test outcome for Cc1ccc(Cc2nnc(SCC(=O)Nc3ccccc3)n(N)c2=O)cc1 , thank you.
Result: label 1

Problem: Would you mind telling me which call this test gave CCCCCc1cc(=O)oc2c(C(CCN3CCN(c4ccccc4)CC3)c3ccc(N(C)C)cc3)c(OC)cc(OC)c12 (stereo unspecified) ?
Result: label 1

Problem: Please let me know the test result on file for CC1(C)CCCN(Cc2c(O)ccc3c(=O)c(-c4nc5ccccc5s4)c(N)oc23)C1 .
Result: label 1

Problem: Per the assay record, what outcome was assigned to CC(C)NC(=O)N(C)C[C@H]1Oc2cc(C#Cc3ccc(F)cc3)ccc2S(=O)(=O)N([C@H](C)CO)C[C@H]1C ?
Result: label 1

Problem: Would you mind telling me which call this test gave C[C@@H]1CN([C@H](C)CO)C(=O)c2cccc(NC(=O)Nc3ccc(C(F)(F)F)cc3)c2O[C@H]1CN(C)S(=O)(=O)c1cccs1 ?
Result: label 0

Problem: Test call, this compound: O=C(CCl)N(CCCNC(=O)C(F)(F)F)c1ccc([N+](=O)[O-])cc1
Result: label 0

Problem: Test call for this compound, please: COc1ccc(C2NCCc3c2[nH]c2ccccc32)cc1CSc1nc2ccccc2s1 (stereo unspecified)
Result: label 0

Problem: Look up the recorded call for Cn1cc(CN2CCC(C(=O)NC(c3ccc(F)cc3)c3ccc4ccccc4n3)CC2)c2ccccc21 (stereo unspecified) in this test.
Result: label 1

Problem: Write down the call the test reported for this compound. Item: CCCCOc1ccccc1C1CC(=O)NC2=C1C(=O)CCC2 (stereo unspecified)
Result: label 0

Problem: # lookup: test call for C=CC[C@@H](CC(=O)N(CCO)Cc1ccccc1)C(=O)N[C@H](COC(=O)[C@@H](CC=C)Cc1ccc(F)cc1)Cc1c[nH]c2ccccc12
Result: label 1

Problem: Entry OCCCn1c(C2CCCN2c2nc(-c3ccc(F)cc3)cs2)nc2cc(C(F)(F)F)ccc21 (stereo unspecified) : call = ?
Result: label 1

Problem: Would you mind telling me which call this test gave O=C(c1ccoc1)N1CCN(c2cc(-c3cccnc3)nc3cc(-c4cccc(Cl)c4)nn23)CC1 ?
Result: label 1

Problem: State the result this test recorded for NC(Cc1ccc(Cl)cc1)c1csc(NC(=O)NCCc2ccccc2)n1 (stereo unspecified) .
Result: label 0
